# Tested on: RAW264.7
# Assay notes: Antiinflammatory activity in LPS-induced mouse RAW264.7 cells assessed as inhibition of nitric oxide secretion at 20 microM incubated for 24 hrs by Griess reagent based assay relative to control
# Format: functional
Readout: inhibition at 20 µM (%)
Answer with a number only, understood to be in %.

Below: 8 compounds and their reported inhibition at 20 µM.
CO[C@H]1c2c(c(C)c(C)oc2=O)O[C@]12C(C)=C[C@H]1O[C@H]3CC(=O)C=C(C)[C@@H]4CC[C@]2(C)[C@H]1[C@@]34C: 57
CC1=CC(=O)C=C[C@]2(C)[C@H]3[C@@H]4C=C(C)[C@@]56Oc7c(C)c(C)oc(=O)c7[C@@H]5O[C@@H](O4)[C@@]36CC[C@@H]12: 98
CC(=O)O[C@@H]1O[C@@H]2C/C(=C(/C)C(C)=O)O[C@]23C(C)=C[C@H]2O[C@H]4CC(=O)C=C(C)[C@@H]5CC[C@@]13[C@H]2[C@@]45C: 34
CC1=CC(=O)C[C@@H]2O[C@@H]3C=C(C)[C@@]45Oc6c(C)c(C)oc(=O)c6[C@@H]4OC[C@]54CC[C@@H]1[C@@]2(C)[C@@H]34: 45
CC1=C[C@H](O)[C@@H]2[C@@]3(C)C[C@@H](O)C(=O)C(C)(C)[C@@H]3CC[C@@]2(C)[C@]12Cc1c(c(C)c(C)oc1=O)O2: 38
CC1=CC(=O)C=C[C@]2(C)[C@H]3CC=C(C)[C@@]45Oc6c(C)c(C)oc(=O)c6[C@@H]4O[C@@H](O)[C@@]35CC[C@@H]12: 69
CC1=CC[C@@H]2[C@@]3(C)C=CC(=O)[C@@](C)(CO)[C@@H]3CC[C@@]2(C)[C@]12Cc1c(c(C)c(C)oc1=O)O2: 49
CC(C)(C)c1ccc(S(=O)(=O)/C=C/C#N)cc1: 77

# lookup: inhibition at 20 µM of `CC1=CC(=O)C[C@@H]2O[C@@H]3C=C(C)[C@@]45Oc6c(C)c(C)oc(=O)c6[C@@H]4O[C@@H](O)[C@]54CC[C@@H]1[C@@]2(C)[C@@H]34`
35

# lookup: inhibition at 20 µM of `CC1=CC(=O)[C@@H]2[C@@]3(C)[C@H](O)CC(=O)C(C)(C)[C@@H]3CC[C@@]2(C)[C@]12Cc1c(c(C)c(C)oc1=O)O2`
45

# lookup: inhibition at 20 µM of `CC1=CC(=O)[C@@H]2[C@@]3(C)C=CC(=O)C(C)(C)[C@@H]3CC[C@@]2(C)[C@]12Cc1c(c(C)c(C)oc1=O)O2`
87

# lookup: inhibition at 20 µM of CC1=CC(=O)C=C[C@]2(C)[C@H]3C(O)C=C(C)[C@@]4(Cc5c(c(C)c(C)oc5=O)O4)[C@]3(C)CC[C@@H]12 (some centres undefined)
94

# lookup: inhibition at 20 µM of `CC1=CC(=O)C=C[C@]2(C)[C@H]3[C@@H](O)C=C(C)[C@@]4(Cc5c(c(C)c(C)oc5=O)O4)[C@]3(C)CC[C@@H]12`
79

# lookup: inhibition at 20 µM of `CC1=CC(=O)C=C[C@]2(C)[C@H]3[C@@H](O)[C@@H]4O[C@]4(C)[C@@]4(Cc5c(c(C)c(C)oc5=O)O4)[C@]3(C)CC[C@@H]12`
63
